METHOD SUMMARY: Plasma vaniprevir pharmacokinetics
Format: in vivo, human
EXPERIMENTAL PARAMETERS: human, plasma, oral, 600 mg
ATTRIBUTE MEASURED: AUC(0-t) (µM·h)
Please reply with the bare figure in µM·h and do not write the unit itself.

So for CC[C@@H]1C[C@]1(NC(=O)[C@@H]1C[C@@H]2CN1C(=O)[C@H](C(C)(C)C)NC(=O)OCC(C)(C)CCCCc1cccc3c1CN(C3)C(=O)O2)C(=O)NS(=O)(=O)C1CC1 [vaniprevir] , the logged AUC(0-t) turned out to be 59.5

---

METHOD SUMMARY: Hepatic vaniprevir concentration by core needle biopsy
Format: in vivo, human
EXPERIMENTAL PARAMETERS: human, liver, oral, 300 mg, Liver:plasma ratio C6h, mean, 300 mg twice daily, 6 h post-dose day 4
ATTRIBUTE MEASURED: Kp at 6 h
// no unit, no text: just the number

Kindly note the recorded Kp at 6 h for `CC[C@@H]1C[C@]1(NC(=O)[C@@H]1C[C@@H]2CN1C(=O)[C@H](C(C)(C)C)NC(=O)OCC(C)(C)CCCCc1cccc3c1CN(C3)C(=O)O2)C(=O)NS(=O)(=O)C1CC1` , which is 166

---

METHOD SUMMARY: Hepatic vaniprevir concentration by core needle biopsy
Type: in vivo, human
EXPERIMENTAL PARAMETERS: human, liver, oral, 300 mg, Liver concentration C12h, mean, mean (one subject), 300 mg twice daily, 12 h post-dose day 4
ATTRIBUTE MEASURED: concentration at 12 h (µM)
Report as a plain number; the unit µM is understood.

Short answer for `CC[C@@H]1C[C@]1(NC(=O)[C@@H]1C[C@@H]2CN1C(=O)[C@H](C(C)(C)C)NC(=O)OCC(C)(C)CCCCc1cccc3c1CN(C3)C(=O)O2)C(=O)NS(=O)(=O)C1CC1` : concentration at 12 h was 29.4

---

METHOD SUMMARY: Plasma vaniprevir pharmacokinetics
Assay type: in vivo, human
EXPERIMENTAL PARAMETERS: human, plasma, oral, 600 mg
ATTRIBUTE MEASURED: Cmax (µM)
# number only, unit µM dropped from output

Cmax reading for CC[C@@H]1C[C@]1(NC(=O)[C@@H]1C[C@@H]2CN1C(=O)[C@H](C(C)(C)C)NC(=O)OCC(C)(C)CCCCc1cccc3c1CN(C3)C(=O)O2)C(=O)NS(=O)(=O)C1CC1 [vaniprevir] : 13.5

---

METHOD SUMMARY: Plasma vaniprevir pharmacokinetics
Type: in vivo, human
EXPERIMENTAL PARAMETERS: human, plasma, oral, 600 mg
ATTRIBUTE MEASURED: Tmax (h)
Give just the number in h; leave the unit off.

Summary for this compound, CC[C@@H]1C[C@]1(NC(=O)[C@@H]1C[C@@H]2CN1C(=O)[C@H](C(C)(C)C)NC(=O)OCC(C)(C)CCCCc1cccc3c1CN(C3)C(=O)O2)C(=O)NS(=O)(=O)C1CC1 [vaniprevir] : Tmax is 3

---

METHOD SUMMARY: Plasma vaniprevir pharmacokinetics
Assay type: in vivo, human
EXPERIMENTAL PARAMETERS: human, plasma, oral, 300 mg
ATTRIBUTE MEASURED: AUC(0-t)
Answer format: number, then unit.

AUC(0-t) for `CC[C@@H]1C[C@]1(NC(=O)[C@@H]1C[C@@H]2CN1C(=O)[C@H](C(C)(C)C)NC(=O)OCC(C)(C)CCCCc1cccc3c1CN(C3)C(=O)O2)C(=O)NS(=O)(=O)C1CC1` is 10.6 µM·h

---

METHOD SUMMARY: Plasma vaniprevir pharmacokinetics
Assay type: in vivo, human
EXPERIMENTAL PARAMETERS: human, plasma, oral, 600 mg
ATTRIBUTE MEASURED: half-life (h)
Expressed in h, but write only the number.

Entry `CC[C@@H]1C[C@]1(NC(=O)[C@@H]1C[C@@H]2CN1C(=O)[C@H](C(C)(C)C)NC(=O)OCC(C)(C)CCCCc1cccc3c1CN(C3)C(=O)O2)C(=O)NS(=O)(=O)C1CC1` , half-life reported as 3.6

---

METHOD SUMMARY: Plasma vaniprevir pharmacokinetics
Assay type: in vivo, human
EXPERIMENTAL PARAMETERS: human, plasma, oral, 300 mg
ATTRIBUTE MEASURED: Cmax (nM)
API: value field is a number in nM; no unit string.

Quick note, Cmax for `CC[C@@H]1C[C@]1(NC(=O)[C@@H]1C[C@@H]2CN1C(=O)[C@H](C(C)(C)C)NC(=O)OCC(C)(C)CCCCc1cccc3c1CN(C3)C(=O)O2)C(=O)NS(=O)(=O)C1CC1` landed at 2600
